# method-summary: Quantitative High-Throughput drug screen in 47 multiple myeloma cell lines against the NCATS MIPE library collection: MOLP8_DSMZ cell viability assay (AID 1918977); note: nearly all actives have a fitted effect of over 45% in size
# condition-context: MOLP8 myeloma viability, CellTiter-Glo ATP luminescence, 48 h; series mostly up to 45.8 µM
Inconclusive results are not listed. Calls of active or inactive are those of the source. Calls come from the whole dose curve; as a rule, active = well fitted cell-killing curve with a large enough effect; inconclusive = small, poorly fitted or top-dose-only effect, or effect the other way; inactive = no such curve, though single readings can be large or run the other way.
Pick from Yes for active, No for inactive when you respond.

Consider the following illustrative entries.
{"columns": ["molecule", "classification"],
 "data": [
  ["COc1cc2c(cc1OC)[C@@H]1Cc3ccc(OC)c(OC)c3CN1CC2", "Yes"],
  ["COc1ccc(-c2cc3nccn3c(Nc3ncccc3C(N)=O)n2)cc1OC", "Yes"],
  ["CC(C)n1c(C=C[C@H](O)C[C@H](O)CC(=O)O)c(-c2ccc(F)cc2)c2ccccc21", "Yes"],
  ["COc1ccc(CCC(=O)Nc2nc3ccc(Cl)cc3s2)cc1OC", "No"],
  ["CCN(CC)CCCCNc1nc2cc(Cl)c(Cl)cc2nc1-c1ccc(-c2cccs2)s1", "Yes"]
]}

Task: Please state the recorded outcome for this molecule: O=C(O)CCC=CCC[C@@H]1[C@H](N2CCCCC2)[C@@H](O)C[C@@H]1OCc1ccc(-c2ccccc2)cc1
Output: No

Task: Please state the recorded outcome for this molecule: Cc1cn([C@@H]2C[C@@H](O)[C@H](CO)O2)c(=O)[nH]c1=O
Output: No

Task: Please state the recorded outcome for this molecule: CN1C(=O)C(Cc2c[nH]c3ccccc23)NC1=S (stereo unspecified)
Output: No

Task: Please state the recorded outcome for this molecule: NCc1c[nH]c(=S)n1[C@H]1CCc2c(F)cc(F)cc2C1
Output: Yes

Task: Please state the recorded outcome for this molecule: Cc1cc(NC(=O)Nc2ccc(N(C)C)cc2)c2cc(F)cc(F)c2n1
Output: Yes

Task: Please state the recorded outcome for this molecule: CNC1CCC(N(Cc2cccc(-c3ccncc3)c2)C(=O)c2sc3ccccc3c2Cl)CC1 (stereo unspecified)
Output: Yes

Task: Please state the recorded outcome for this molecule: CCCCC[C@H](O)C=C[C@H]1[C@H](O)CC(=O)[C@H]1CC=CCCCC(=O)O
Output: Yes

----------
# method-summary: qHTS of pediatric cancer cell lines to identify multiple opportunities for drug repurposing: Primary screen for SJ-GBM2 cells (AID 1347091); note: potency is the fitted concentration of half-maximal effect
# condition-context: SJ-GBM2 viability, CellTiter-Glo luminescence, 48 h; series mostly up to 46 µM
Results filed as inconclusive are left out. The source made the active and inactive calls. Calls come from the whole dose curve; as a rule, active = well fitted cell-killing curve with a large enough effect; inconclusive = small, poorly fitted or top-dose-only effect; inactive = no such curve, though single readings can be large or run the other way.
property-name: Potency

Past entries and their recorded results:
{"columns": ["compound", "Potency"],
 "data": [
  ["CC1=C(CC(=O)O)c2cc(F)ccc2C1=Cc1ccc(S(C)=O)cc1 (stereo not drawn)", "inactive"],
  ["CN1CCc2c(n(Cc3ccc(C(=O)NO)cc3)c3ccccc23)C1", "16.6 µM (active)"],
  ["NC(=O)c1noc([C@H](CCCC2CCCCC2)CC(=O)NO)n1", "18.7 µM (active)"],
  ["COc1ccc2ccc(=O)oc2c1CC=C(C)C", "inactive"],
  ["Cc1ccc(C(=O)N(CCCN)[C@@H](c2oc3cc(Cl)ccc3c(=O)c2Cc2ccccc2)C(C)C)cc1", "0.001 µM (active)"]
]}

Could you now consider this next compound?
Noted for CCOC(=O)N1CCN([N+]([O-])=NOc2cc(ON=[N+]([O-])N3CCN(C(=O)OCC)CC3)c([N+](=O)[O-])cc2[N+](=O)[O-])CC1 : its Potency reads 14.8 µM (active)
